Hi, quick share: literature Ki data for Alpha-1D adrenergic receptor (Homo sapiens, UniProt P25100), several sources combined.
Observed property: Ki (nM)

P: CC(C)Oc1ccccc1N1CCN(Cc2nc(CN3C(=O)c4ccccc4C3=O)co2)CC1
Q: CSc1cc(F)ccc1NCC1=NCCN1
**Query** # min-compare on Ki between P and Q Your answer should be the label attached to the chosen record.
**Result** Q
(Q: 5.01 nM, P: 1110 nM)

A: CCC1=NC(CC)=C(C(=O)NCCCN2CCC(c3ccccc3)(c3ccccc3)CC2)C(c2ccc([N+](=O)[O-])cc2)/C1=C(\O)OC (stereo not given)
B: Clc1cccc(Cl)c1OCCNCCOc1ccccc1OCc1ccccc1
**Query** Input pair: A , B . Output: entry with lower Ki. Mark your selection by writing its label.
**Result** B

###

pKi: −log10 of the molar value.
Recorded pKi for compounds tested on UniProt P25100, drawn from a number of studies.
Observed property: pKi

Before answering, review these 5 worked examples.
compound=COc1ccccc1N1CCN(CCn2c(=O)[nH]c3c(sc4ccccc43)c2=O)CC1 experimental_result=8.90
compound=O=C(NC1CCN(CCc2c[nH]c3ccccc23)CC1)c1ccccc1 experimental_result=6.80
compound=COc1cc2nc(N3CCC[C@H](NC(=O)[C@@H]4COc5ccccc5O4)C3)nc(N)c2cc1OC experimental_result=7.88
compound=COc1ccccc1C1(C#N)CCN(CCCNC(=O)C(c2ccc(C)cc2)c2ccc(C)cc2)CC1 experimental_result=6.15
compound=COc1ccccc1OCCNCCOC(c1ccccc1)c1ccccc1 experimental_result=8.00

a: O=C1CC2(CCCC2)CC(=O)N1CCN1CCN(c2cc(F)ccc2F)CC1
b: CCOc1ccccc1OCCN[C@H](C)Cc1ccc(OC)c(S(N)(=O)=O)c1
**Query** Problem: Given the entries a and b , determine which has the lower reported pKi. Answer by stating the label of the chosen item.
**Result** a

###

Ki for Alpha-1D adrenergic receptor (Homo sapiens), merged from several publications.
Observed property: Ki (nM)

compound=O=C1CC2(CCCC2)CC(=O)N1CCN1CCN(c2ccccc2O)CC1 experimental_result=16.1
compound=COc1ccccc1CCN1CCC2(CC1)CC(=O)c1ccc(NS(C)(=O)=O)cc1O2 experimental_result=94
compound=COc1ccc(S(=O)(=O)N[C@H]2CC[C@@H](N3CCN(c4ccccc4OCC4CC4)CC3)CC2)cc1OC experimental_result=64

I: Cc1ccc(N2C(=O)c3ccc(C(=O)NCC(O)CN4CCN(c5ccccc5OC(C)C)CC4)cc3C2=O)cc1 (stereo not given)
II: COc1cccc(OC)c1OCCNC[C@@H]1COc2cccc(F)c2O1
**Query** Please indicate which entry, I or II , has the lower recorded Ki value. Select an item and report its label.
**Result** II
(II: 7.41 nM, I: 62 nM)

I: COc1ccc2c(c1OCCNC[C@H]1COc3ccccc3O1)CCCC2
II: Cc1ccc(N2CCN(CCN3C(=O)CC4(CCCC4)CC3=O)CC2)c(C)c1
III: Cc1ccc(F)c(N2CCN(CCN3C(=O)CC4(CCCC4)CC3=O)CC2)c1
**Query** Returns the items ordered by Ki, from maximum to minimum. Please write the labels in the order that was asked for.
**Result** II, I, III
(II: 73.3 nM, I: 14.5 nM, III: 2.38 nM)

a: CC(C)Oc1ccccc1N1CCN(CC(O)CNC(=O)c2ccc3c(c2)C(=O)N(c2cccc(F)c2)C3=O)CC1 (stereo not given)
b: COc1ccccc1OCCNCC1CCC(c2ccccc2)(c2ccccc2)O1 (stereo not given)
**Query** Consider a and b . Which of these has its Ki at a higher number? Identify your selection by its label.
**Result** a
(a: 75 nM, b: 6.31 nM)
